- Test system: U2OS
- method_description: Incucyte cell viability with U2OS; also: unitless GR value; below 1 slowed growth and below 0 cell loss
- Assay type: toxicity, cell-based
- conditions: human, 12 h, 10 µM, compound concentration 10 uM, replicate number 1
Assign class by Growth Rate: not lower than 0.7 means label 1; lower than 0.7 means label 0.

Solved entries:
O=C1N=C(NCc2cccs2)S/C1=C\c1ccc2ncccc2c1; label 0
COc1cc(-c2cn(C)c(=O)c3cnccc23)c(OC)cc1CN(C)C; label 1
COC1(C#Cc2ccc(Cl)c(-c3ncc4c(n3)-c3sc(NC(C)=O)nc3CC4)c2)CCN(C)CC1; label 1
COc1ncc(-c2cc(-c3ncc(CN4C[C@@H](C)O[C@@H](C)C4)o3)c3cn[nH]c3c2)cc1NS(C)(=O)=O; label 0

Is the recorded value of Growth Rate equal to or greater than 0.7 for this compound? CN[C@@H](C)C(=O)N[C@H](C(=O)N1CCC[C@H]1c1nc(C(=O)c2ccc(F)cc2)cs1)C1CCCCC1
label 1

Say whether Cc1c(N2CCCC2)nc2ccc(Br)cc2c1C(=O)NC[C@H](CCC(=O)O)c1ccccc1Cl.Cl.O shows Growth Rate of 0.7 or more.
label 1

Is reported Growth Rate greater than or equal to 0.7 here: Cc1cc(OC2CCS(=O)(=O)CC2)cc(C)c1-c1cccc(COc2ccc(C(=O)O)c(F)c2)c1
label 0

Entry Cc1c(CCC(=O)O)cccc1NC(=O)[C@@H](c1ccc(-c2cncc(Cl)c2)c(F)c1)C1CCCC1 : is its Growth Rate no less than 0.7?
label 1

Say whether CCOC(=O)c1cnn(-c2ccc(NC(=O)C(Cl)=C(Cl)Cl)cc2)c1C(F)(F)F shows Growth Rate of 0.7 or more.
label 0

---

- Tested on: U2OS
- method_description: Incucyte cell viability with U2OS; also: unitless GR value; below 1 slowed growth and below 0 cell loss
- Format: toxicity, cell-based
- conditions: human, 0 h, 10 µM, compound concentration 10 uM, replicate number 1
property_measured: Growth Rate
Form rule: numeric answer, no unit written next to it.

O=S1(=O)NCN(C2CC2)c2ccc(F)cc21; 0.05
CC(=O)Nc1nc(C)c(S(=O)(=O)Nc2ccc(C(O)(C(F)(F)F)C(F)(F)F)cc2)s1; -0.47
Nc1ccc(-c2cnc(N)c(-c3ccc(Cl)cc3)c2)cn1; -0.24

Noted for O=C(O)c1ccc(-c2c[nH]c3ncc(-c4ccccc4)cc23)cc1C1CCCC1 : its Growth Rate reads 0.01

Just so you know, measured Growth Rate for COc1cc2ncnc(Nc3ccc(Oc4ccccc4)cc3C)c2cc1OC.Cl came out at 0.5

Record CC[C@H](NC(=O)[C@H](C)NC)C(=O)N1C[C@@H](O)C[C@H]1Cc1c(-c2[nH]c3cc(F)ccc3c2C[C@@H]2C[C@H](O)CN2C(=O)[C@H](CC)NC(=O)[C@H](C)NC)[nH]c2cc(F)ccc12 . Reported Growth Rate: 0.94

Field Growth Rate (entry CC(N)C1CCC(C(=O)Nc2ccncc2)CC1 (stereo not drawn) ) reads 0.26

Item: C[C@@H](C(N)=O)[C@H](N)c1nc2cc(C(C)(C)C)ccc2[nH]1 | Growth Rate: -0.1

---

- Test system: Fibroblast
- method_description: Incucyte cell viability with human fibroblast; also: unitless GR value; below 1 slowed growth and below 0 cell loss
- Format: toxicity, cell-based
- conditions: 0 h, 10 µM, compound concentration 10 uM, replicate number 2
property_measured: Growth Rate
Lab note: jot the number down without any unit.

Solved cases below.
O=C(Nc1ccc(S(=O)(=O)Nc2nccs2)cc1)C(c1ccccc1)c1ccccc1; -0.85
O=C(O)c1cc(F)c2nc(N3[C@@H]4CC[C@H]3C[C@@H](OCc3c(-c5ccccc5OC(F)(F)F)noc3C3CC3)C4)sc2c1 [TROPIFEXOR]; 0.33
CCO[C@@H](Cc1ccc(OCCc2ccc(OS(C)(=O)=O)cc2)cc1)C(=O)O; 0.24

Now consider a different compound.
Record COc1cc(-c2cncc(-c3ccc(N4CCN(C(C)C)CC4)cc3)c2C)cc(F)c1C(=O)N1CCCC1 has Fibroblast Growth Rate equal to 0.49

Data origin, for the record: ChEMBL document CHEMBL5303304
